# System: maximal electroshock-induced seizures
# assay_summary: Maximal electroshock-induced seizure (MES) test in mice
# Type: in vivo, mouse
# condition: 300 mg/kg i.p., pretreatment time 120 min, mice
assay_readout: p/t, number of animals protected against MES-induced seizures / number tested

Some compounds with recorded p/t, number of animals protected against MES-induced seizures / number tested:
INSERT INTO results (compound, assay_system, assay_value) VALUES
  ('S=c1[nH]nc(-c2cccc(Cl)c2)n1-c1ccc(I)cc1 [Compound 7a]', 'maximal electroshock-induced seizures', '0/8'),
  ('S=c1n(CN2CCN(c3ccccc3)CC2)nc(-c2cccc(Cl)c2)n1-c1ccc(Br)cc1 [Compound 20a]', 'maximal electroshock-induced seizures', '0/8'),
  ('S=c1n(CN2CCOCC2)nc(-c2cccc(Cl)c2)n1-c1ccc(Br)cc1 [Compound 19a]', 'maximal electroshock-induced seizures', '0/8'),
  ('S=c1n(CN2CCN(c3ccccc3)CC2)nc(-c2ccc(Cl)cc2)n1-c1ccc(Br)cc1 [Compound 29a]', 'maximal electroshock-induced seizures', '0/8');

// query Item under review: Fc1ccc(N2CCN(Cn3nc(-c4ccc(Cl)cc4)n(-c4ccc(Br)cc4)c3=S)CC2)cc1 [Compound 30a] . Reported p/t, number of animals protected against MES-induced seizures / number tested?
// result 0/8

// query Item under review: S=c1[nH]nc(-c2cccc(Cl)c2)n1-c1ccc(Br)cc1 [Compound 6a] . Reported p/t, number of animals protected against MES-induced seizures / number tested?
// result 3/8

// query Item under review: S=c1[nH]nc(-c2ccc(Cl)cc2)n1-c1ccc(Br)cc1 [Compound 16a] . Reported p/t, number of animals protected against MES-induced seizures / number tested?
// result 8/8

// query Item under review: Fc1ccc(-n2c(-c3ccc(Cl)cc3)n[nH]c2=S)c(F)c1 [Compound 13a] . Reported p/t, number of animals protected against MES-induced seizures / number tested?
// result 8/8

// query Item under review: Cc1ccc(-n2c(-c3cccc(Cl)c3)nn(CN3CCN(c4ccc(F)cc4)CC3)c2=S)cc1 [Compound 24a] . Reported p/t, number of animals protected against MES-induced seizures / number tested?
// result 0/8

// query Item under review: CC(=O)c1ccc(-n2c(-c3cccc(Cl)c3)n[nH]c2=S)cc1 [Compound 11a] . Reported p/t, number of animals protected against MES-induced seizures / number tested?
// result 0/8

###

# System: maximal electroshock-induced seizures
# assay_summary: Maximal electroshock-induced seizure (MES) test in mice
# Format: in vivo, mouse
# condition: protective index, chimney TD50 / MES ED50, pretreatment time 60 min
PI (TD50/ED50): recorded values
Respond with the number and no other words.

Some compounds with recorded PI (TD50/ED50):
INSERT INTO assay_data (compound, assay_value) VALUES
  ('Cc1ccc(-n2c(-c3cccc(Cl)c3)nn(CN3CCOCC3)c2=S)cc1 [Compound 22a]', 1.6),
  ('S=c1[nH]nc(-c2cccc(Cl)c2)n1-c1ccc(Cl)cc1', 2.1);

Note: attention shifts to another entry.
// query GET /values?readout=PI (TD50/ED50)&system=maximal electroshock-induced seizures&item= Fc1ccc(-n2c(-c3ccc(Cl)cc3)n[nH]c2=S)c(F)c1 [Compound 13a]
// result 1.6

###

# System: maximal electroshock-induced seizures
# assay_summary: Maximal electroshock-induced seizure (MES) test in mice
# Assay type: in vivo, mouse
# condition: protective index, chimney TD50 / MES ED50, pretreatment time 15 min
assay_readout: PI (TD50/ED50)
Respond with the number and no other words.

INSERT INTO measurements (compound, assay_value) VALUES
  ('Fc1ccc(-n2c(-c3ccc(Cl)cc3)n[nH]c2=S)c(F)c1 [Compound 13a]', 1.9),
  ('S=c1[nH]nc(-c2ccc(Cl)cc2)n1-c1ccc(Br)cc1 [Compound 16a]', 1.6),
  ('Cc1ccc(-n2c(-c3cccc(Cl)c3)nn(CN3CCOCC3)c2=S)cc1 [Compound 22a]', 1.5);

Note: attention shifts to another entry.
// query Item under review: S=c1[nH]nc(-c2cccc(Cl)c2)n1-c1ccc(Cl)cc1 . Reported PI (TD50/ED50)?
// result 3.9

###

# Tested on: benzodiazepine (BDZ)-binding sites
# assay_summary: Radioligand binding assay, [3H]flunitrazepam, rat cerebral cortex;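 note: low percentages indicate weak binding of the compound to the site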
# condition: compound 1 × 10^−6 M
assay_readout: Percent of Specific Binding, BDZ (%)
Answer with a number only, understood to be in %.

INSERT INTO assay_data (compound, assay_readout, assay_value) VALUES
  ('Cc1ccc(-c2nc3ccc(C)cn3c2CC(=O)N(C)C)cc1 [Zolpidem, reference compound]', 'Percent of Specific Binding, BDZ', 73),
  ('S=c1[nH]nc(-c2cccc(Cl)c2)n1-c1ccc(Br)cc1', 'Percent of Specific Binding, BDZ', 20),
  ('S=c1[nH]nc(-c2ccc(Cl)cc2)n1-c1ccc(Br)cc1 [Compound 16a]', 'Percent of Specific Binding, BDZ', 24);

Note: attention shifts to another entry.
// query Item under review: Cc1ccc(-n2c(-c3cccc(Cl)c3)n[nH]c2=S)cc1 [Compound 10a] . Reported Percent of Specific Binding, BDZ?
// result 9

###

# Test system: GABAA receptors
# assay_summary: Radioligand binding assay, [3H]muscimol, rat cerebral cortex;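 note: low percentages indicate weak binding of the compound to the receptor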
# condition: compound 1 × 10^−6 M, [3H]muscimol, rat cerebral cortex
Outcome: class 1 for Percent of Specific Binding, GABAA of at least 20%; class 0 for anything lower.

INSERT INTO results (molecule, assigned_label) VALUES
  ('S=c1[nH]nc(-c2cccc(Cl)c2)n1-c1ccccc1Br', 'class 0'),
  ('Cc1ccc(-n2c(-c3cccc(Cl)c3)n[nH]c2=S)cc1 [Compound 10a]', 'class 0'),
  ('S=c1[nH]nc(-c2ccc(Cl)cc2)n1-c1ccccc1Br [Compound 15a]', 'class 0'),
  ('Cc1ccc(-n2c(-c3cccc(Cl)c3)nn(CN3CCN(c4ccc(F)cc4)CC3)c2=S)cc1 [Compound 24a]', 'class 1'),
  ('S=c1[nH]nc(-c2ccc(Cl)cc2)n1-c1ccc(Br)cc1 [Compound 16a]', 'class 0'),
  ('Fc1ccccc1-n1c(-c2ccc(Cl)cc2)n[nH]c1=S [Compound 12a]', 'class 0'),
  ('Cc1ccc(-n2c(-c3cccc(Cl)c3)nn(CN3CCN(c4ccccc4)CC3)c2=S)cc1 [Compound 23a]', 'class 1'),
  ('CSc1ccc(-n2c(-c3ccc(Cl)cc3)n[nH]c2=S)cc1 [Compound 17a]', 'class 1');

Below: the item to evaluate.
// query # check: Percent of Specific Binding, GABAA of NCCCC(=O)O is greater than or equal to 20%
// result class 1

###

# System: maximal electroshock-induced seizures
# assay_summary: Maximal electroshock-induced seizure (MES) test in mice
# Format: in vivo, mouse
# condition: 300 mg/kg i.p., pretreatment time 120 min, mice
p/t, number of animals protected against MES-induced seizures / number tested: recorded values

Some compounds with recorded p/t, number of animals protected against MES-induced seizures / number tested:
INSERT INTO results (compound, assay_system, assay_value) VALUES
  ('S=c1[nH]nc(-c2cccc(Cl)c2)n1-c1ccccc1Br [Compound 5a]', 'maximal electroshock-induced seizures', '1/8'),
  ('Fc1ccccc1-n1c(-c2cccc(Cl)c2)n[nH]c1=S [Compound 1a]', 'maximal electroshock-induced seizures', '1/8');

// query Item under review: Cc1ccc(-n2c(-c3cccc(Cl)c3)nn(CN3CCOCC3)c2=S)cc1 [Compound 22a] . Reported p/t, number of animals protected against MES-induced seizures / number tested?
// result 2/8

// query Item under review: CSc1ccc(-n2c(-c3ccc(Cl)cc3)n[nH]c2=S)cc1 [Compound 17a] . Reported p/t, number of animals protected against MES-induced seizures / number tested?
// result 0/8

// query Item under review: S=c1n(CN2CCOCC2)nc(-c2ccc(Cl)cc2)n1-c1ccc(Br)cc1 [Compound 28a] . Reported p/t, number of animals protected against MES-induced seizures / number tested?
// result 0/8

###

# Tested on: benzodiazepine (BDZ)-binding sites
# assay_summary: Radioligand binding assay, [3H]flunitrazepam, rat cerebral cortex;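 note: low percentages indicate weak binding of the compound to the site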
# condition: compound 1 × 10^−6 M
assay_readout: Percent of Specific Binding, BDZ
Include the unit right after the number.

INSERT INTO assay_data (molecule, assay_value) VALUES
  ('CN1C(=O)CN=C(c2ccccc2)c2cc(Cl)ccc21 [Diazepam, reference compound]', '83%');

// query Item under review: Cc1ccc(-n2c(-c3cccc(Cl)c3)nn(CN3CCN(c4ccccc4)CC3)c2=S)cc1 [Compound 23a] . Reported Percent of Specific Binding, BDZ?
// result 7%

// query Item under review: S=c1[nH]nc(-c2cccc(Cl)c2)n1-c1ccccc1Br . Reported Percent of Specific Binding, BDZ?
// result 12%

// query Item under review: CSc1ccc(-n2c(-c3ccc(Cl)cc3)n[nH]c2=S)cc1 [Compound 17a] . Reported Percent of Specific Binding, BDZ?
// result 6%
